IC50 for assorted compounds
- System: Human full-length diacylglycerol:acylCoA acyltransferase 1 (DGAT-1) (Homo sapiens)
- Construct: Human full-length diacylglycerol:acylCoA acyltransferase 1 (DGAT-1) was expressed in Sf9 insect cells; made in house; host or cells: Sf9 insect cells (baculovirus)
- Sequence (O75907 whole entry): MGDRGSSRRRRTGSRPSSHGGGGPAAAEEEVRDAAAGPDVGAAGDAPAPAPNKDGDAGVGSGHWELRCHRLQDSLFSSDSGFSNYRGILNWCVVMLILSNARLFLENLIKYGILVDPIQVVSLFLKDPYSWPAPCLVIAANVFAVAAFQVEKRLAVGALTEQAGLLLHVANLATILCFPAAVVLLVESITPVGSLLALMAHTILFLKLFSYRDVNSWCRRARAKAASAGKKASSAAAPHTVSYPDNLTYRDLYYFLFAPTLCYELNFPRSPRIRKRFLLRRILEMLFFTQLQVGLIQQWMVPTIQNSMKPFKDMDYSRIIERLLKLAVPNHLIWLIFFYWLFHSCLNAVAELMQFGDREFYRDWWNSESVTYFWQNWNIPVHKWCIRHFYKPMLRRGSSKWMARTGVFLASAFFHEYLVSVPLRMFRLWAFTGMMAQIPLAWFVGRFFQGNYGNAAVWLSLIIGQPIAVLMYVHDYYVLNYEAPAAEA
- Test method notes: In vitro DGAT-1 inhibition, Assay 2
- Type: biochemical
- Experimental parameters: as Assay 4 but eleven inhibitor concentrations; average where n > 1
Structures can show the parent of a compound that is named as a salt.
Don't forget the unit after the number, please.

Compound	IC50
COc1nc(N)c2c(n1)CCN(c1ccc([C@H]3CC[C@H](CC(=O)O)CC3)cc1)C2=O [Example 2-A]	1.56 nM
COc1nc(N)c2c(n1)CCN(c1ccc([C@H]3CC[C@H](CC(=O)O)CC3)cc1)C2=O [Example 2-B, hydrochloride]	23.9 nM

*Q* Supply measured IC50 of COc1nc(N)c2c(n1)CCN(c1ccc([C@H]3CC[C@H](CC(=O)O)CC3)c(C)c1)C2=O [Example 5] in your reply.
*A* 3.03 nM

*Q* Supply measured IC50 of COc1nc(N)c2c(n1)CCN(c1ccc([C@H]3CC[C@H](CC(=O)O)CC3)c(F)c1)C2=O [Example 8] in your reply.
*A* 3.79 nM
